Hey, just so you know, these numbers are from ChEMBL document CHEMBL1155080.

- SUBJECT OF TEST: Alpha-2C adrenergic receptor (Homo sapiens) (UniProt P18825)
- Sequence (P18825 whole entry): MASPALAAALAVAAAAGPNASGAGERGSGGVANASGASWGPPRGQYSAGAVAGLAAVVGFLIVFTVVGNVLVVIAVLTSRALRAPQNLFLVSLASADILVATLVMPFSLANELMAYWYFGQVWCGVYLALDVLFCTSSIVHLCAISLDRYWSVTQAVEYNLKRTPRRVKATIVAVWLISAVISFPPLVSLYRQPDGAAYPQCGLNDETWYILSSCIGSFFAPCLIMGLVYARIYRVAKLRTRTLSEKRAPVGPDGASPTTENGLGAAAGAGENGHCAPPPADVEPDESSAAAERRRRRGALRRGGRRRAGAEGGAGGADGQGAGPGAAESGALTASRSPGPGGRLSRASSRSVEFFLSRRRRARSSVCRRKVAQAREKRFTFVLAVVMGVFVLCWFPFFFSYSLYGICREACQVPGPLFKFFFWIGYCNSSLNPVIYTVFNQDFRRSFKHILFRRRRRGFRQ
- PROTOCOL SUMMARY: Intrinsic activity at human recombinant adrenergic Alpha-2C receptor expressed in CHO cells assessed as stimulation of extracellular acidification relative to (-)-noradrenaline
- Format: cell-based
Ranges used to classify Intrinsic activity: band A = under 0.6, band B = from 0.6 up to 0.8, band C = 0.8 and over

Worked examples, 4 compounds total:
1) CC(Oc1ccccc1/C=N/OCc1ccccc1)C1=NCCN1 (stereo unspecified)    band A
2) c1ccc(-c2ccccc2OC(C2=NCCN2)c2ccccc2)cc1 (stereo unspecified)    band B
3) C=CCc1ccccc1OC(C)C1=NCCN1 (stereo unspecified) [ALLYPHENYLINE]    band C
4) CC(Oc1ccccc1C1CCCC1)C1=NCCN1 (stereo unspecified)    band B

Incoming: Which band does CO/N=C/c1ccccc1OC(C)C1=NCCN1 (stereo unspecified) fall in?
Outgoing: band A

Incoming: Which band does CCO/N=C/c1ccccc1OC(C)C1=NCCN1 (stereo unspecified) fall in?
Outgoing: band A

Incoming: Which band does c1ccc(-c2cccc3c2OCC(C2=NCCN2)O3)cc1 (stereo unspecified) fall in?
Outgoing: band B

Incoming: Which band does c1ccc(-c2cccc3c2OC(C2=NCCN2)CO3)cc1 (stereo unspecified) fall in?
Outgoing: band A

Incoming: Which band does CC(Oc1ccccc1/C=N/O)C1=NCCN1 (stereo unspecified) fall in?
Outgoing: band C

----------
Quick reference: Ki of the listed items.
- SUBJECT OF TEST: Alpha-2A adrenergic receptor (Homo sapiens, UniProt P08913)
- Sequence (P08913 whole entry): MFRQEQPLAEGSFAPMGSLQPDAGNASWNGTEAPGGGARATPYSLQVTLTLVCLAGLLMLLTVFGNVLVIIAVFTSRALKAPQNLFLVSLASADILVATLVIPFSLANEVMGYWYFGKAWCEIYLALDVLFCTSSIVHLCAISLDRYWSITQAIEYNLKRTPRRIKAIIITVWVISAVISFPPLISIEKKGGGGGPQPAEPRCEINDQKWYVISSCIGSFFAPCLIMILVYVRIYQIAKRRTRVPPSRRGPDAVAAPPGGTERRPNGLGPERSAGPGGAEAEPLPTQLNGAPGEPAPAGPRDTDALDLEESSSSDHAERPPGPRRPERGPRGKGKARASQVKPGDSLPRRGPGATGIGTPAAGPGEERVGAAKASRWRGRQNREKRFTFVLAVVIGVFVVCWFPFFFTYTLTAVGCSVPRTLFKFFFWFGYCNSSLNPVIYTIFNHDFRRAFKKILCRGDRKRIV
- PROTOCOL SUMMARY: Displacement of [3H]RS79948-197 from human recombinant adrenergic alpha2A receptor expressed in CHO cells
Only the number, expressed in nM, is required.

1. c1ccc(-c2cccc3c2OCC(C2=NCCN2)O3)cc1 (stereo not given)    724
2. CC(Oc1ccccc1)C1=NCCN1 (stereo not given)    26.9
3. CC(Oc1ccccc1C1CCCCC1)C1=NCCN1 (stereo not given)    74.1

Incoming: For CCO/N=C/c1ccccc1OC(C)C1=NCCN1 (stereo not given) , what is its reported Ki?
Outgoing: 417

Incoming: For CC(Oc1ccccc1C1CCCC1)C1=NCCN1 (stereo not given) , what is its reported Ki?
Outgoing: 50.1

Incoming: For c1ccc(-c2ccc3c(c2)OC(C2=NCCN2)CO3)cc1 (stereo not given) , what is its reported Ki?
Outgoing: 398

Incoming: For COC1(C2=NCCN2)COc2c(cccc2-c2ccccc2)O1 (stereo not given) , what is its reported Ki?
Outgoing: 257

Incoming: For c1ccc(-c2cccc3c2OC(C2=NCCN2)CO3)cc1 (stereo not given) , what is its reported Ki?
Outgoing: 240

Incoming: For c1ccc(-c2ccccc2OC(C2=NCCN2)c2ccccc2)cc1 (stereo not given) , what is its reported Ki?
Outgoing: 240

Incoming: For CC(Oc1ccccc1/C=N/OCc1ccccc1)C1=NCCN1 (stereo not given) , what is its reported Ki?
Outgoing: 214

Incoming: For CO/N=C/c1ccccc1OC(C)C1=NCCN1 (stereo not given) , what is its reported Ki?
Outgoing: 661

Incoming: For c1ccc(OC(C2=NCCN2)c2ccccc2)cc1 (stereo not given) , what is its reported Ki?
Outgoing: 93.3

Incoming: For CC(Oc1ccccc1/C=N/O)C1=NCCN1 (stereo not given) , what is its reported Ki?
Outgoing: 288

Incoming: For c1ccc(-c2ccc3c(c2)OCC(C2=NCCN2)O3)cc1 (stereo not given) , what is its reported Ki?
Outgoing: 282

Incoming: For COC1(C2=NCCN2)COc2cccc(-c3ccccc3)c2O1 (stereo not given) , what is its reported Ki?
Outgoing: 126
